This listing pairs molecules with measured EC50.
molecular target: Peroxisome proliferator-activated receptor alpha (Homo sapiens); assay: Agonist activity at human PPARalpha ligand binding domain expressed in human 293T cells co-transfected with Gal4-DBD by luciferase transactivation assay; assay type: cell-based; conditions: read-out: EC50
Sequence (Q07869 whole entry, the tested form may be a part): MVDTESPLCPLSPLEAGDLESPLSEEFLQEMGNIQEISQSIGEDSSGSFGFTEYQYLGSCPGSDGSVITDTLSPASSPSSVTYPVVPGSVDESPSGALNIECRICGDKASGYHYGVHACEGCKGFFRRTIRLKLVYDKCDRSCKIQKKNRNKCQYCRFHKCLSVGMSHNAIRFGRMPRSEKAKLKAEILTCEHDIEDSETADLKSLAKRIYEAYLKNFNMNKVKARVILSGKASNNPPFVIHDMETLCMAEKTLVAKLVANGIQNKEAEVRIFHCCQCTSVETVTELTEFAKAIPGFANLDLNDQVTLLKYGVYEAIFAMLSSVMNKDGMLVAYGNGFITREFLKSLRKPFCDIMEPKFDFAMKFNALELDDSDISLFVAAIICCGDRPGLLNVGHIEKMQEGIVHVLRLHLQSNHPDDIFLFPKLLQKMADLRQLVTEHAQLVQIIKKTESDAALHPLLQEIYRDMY

Completed entries (count: 5):
molecule: Cc1cc(OCc2nc(-c3ccc(OCC(C)C)cc3)c(-c3ccc(OC(F)(F)F)cc3)s2)ccc1OCC(=O)O
test_result: > 10 µM
--
molecule: COc1ccc(-c2nc(COc3ccc(CCC(=O)O)c(C)c3)sc2-c2ccc(C(F)(F)F)cc2)cc1
test_result: > 10 µM
--
molecule: COc1ccc(-c2nc(COc3ccc(CC(=O)O)cc3)sc2-c2ccc(C(F)(F)F)cc2)cc1
test_result: > 10 µM
--
molecule: CCCc1ccc(-c2sc(COc3ccc(OCC(=O)O)c(C)c3)nc2-c2ccc(OC)cc2)cc1
test_result: > 10 µM
--
molecule: COc1ccc(-c2nc(COc3ccccc3OCC(=O)O)sc2-c2ccc(C(F)(F)F)cc2)cc1
test_result: > 10 µM

Q: // lookup EC50 for COc1ccc(-c2nc(COc3ccc(OCC(=O)O)c(C)c3)sc2-c2ccc(-c3ccccc3)c(C(F)(F)F)c2)cc1
Result: > 10 µM

Q: Value lookup for EC50; key = COc1ccc(-c2nc(COc3ccc(OCC(=O)O)c(C)c3)sc2-c2ccc(SC(F)(F)F)cc2)cc1
Result: > 10 µM

Q: Which measured EC50 value corresponds to COc1ccc(-c2nc(COc3ccc4c(c3)CC(C(=O)O)O4)sc2-c2ccc(C(F)(F)F)cc2)cc1 (configuration not stated) ?
Result: > 10 µM

Q: Sample CCCc1cc(OCc2nc(-c3ccc(OC)cc3)c(-c3ccc(C(F)(F)F)cc3)s2)ccc1OCC(=O)O — what was its EC50?
Result: > 10 µM

Q: Quick check: EC50 of Cc1cc(OCc2nc(-c3ccc(OC(C)C)cc3)c(-c3ccc(OC(F)(F)F)cc3)s2)ccc1OCC(=O)O ?
Result: > 10 µM

Q: Endpoint output: EC50 of Cc1cc(OCc2nc(-c3ccc(C(=O)N4CCCCC4)cc3)c(-c3ccc(OC(F)(F)F)cc3)o2)ccc1OCC(=O)O . Value?
Result: 1.15 µM

Q: Given COc1ccc(-c2nc(COc3ccc(OCC(=O)O)cc3C)sc2-c2ccc(C(F)(F)F)cc2)cc1 , state its recorded EC50.
Result: > 10 µM

Q: Name the recorded EC50 for COc1ccc(-c2nc(COc3ccc(OCC(=O)O)c(C)c3)sc2-c2ccc(OC(F)(F)F)cc2)cn1 .
Result: > 10 µM
